Reference source for all entries: patent US20260242478A1

Exercise: for every item that follows, state its recorded CD28 scFv signal.
Target: T1, Anti-CD28 scFv (VH - linker 1 - VL) (biotinylated (site not stated))
T1 construct: Biotinylated scFv captured on neutravidin coated plates in the panning ELISA
T1 sequence (scFv, as listed by the source): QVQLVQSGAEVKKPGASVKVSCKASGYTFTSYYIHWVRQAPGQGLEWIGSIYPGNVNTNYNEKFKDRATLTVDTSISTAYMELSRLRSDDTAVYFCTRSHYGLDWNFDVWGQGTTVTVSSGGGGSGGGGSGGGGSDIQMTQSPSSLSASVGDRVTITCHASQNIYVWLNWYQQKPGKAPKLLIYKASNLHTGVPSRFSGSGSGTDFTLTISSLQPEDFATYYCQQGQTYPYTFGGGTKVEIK
Experiment: phage ELISA; biotinylated anti-CD28 scFv on neutravidin plate, clonal phage supernatant, anti-M13-HRP detection;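 further: before phage addition, wells were pretreated with soluble CD28 protein in blocking buffer, or with blocking buffer only as the comparison, then phage were added without washing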
Where no end group is shown, it is not given here.
Hey, just send me the number, nothing else.

Reported CD28 scFv signal ( MDWCPRYLWPVCFH (tested as crude phage supernatant) [Phage-307] ) = 2.39

Reported CD28 scFv signal ( MDWCPRDLWAMCFA (cysteine pairing not given here; also: displayed on phage as fusion to pIII, tested as crude phage supernatant) [Phage-285] ) = 2.63

Reported CD28 scFv signal ( MDWCPKFLWDECFA (tested as crude phage supernatant) [Phage-304] ) = 2.41
